Assay: small-molecule microarray binders of probe aCHRDL2, primary screen, biochemical, biotinylated probe, 635/667 nm fluorescence (AID 1100)
Conditions: higher = more signal
Returns Satisfied if the recorded composite z-score is greater than or equal to 0.6, and Not satisfied otherwise.

Example results:
COc1cc2c(cc1OC)CN(C(=O)[C@H]1[C@@H]3C(=O)O[C@@H](c4ccccc4)[C@@H](c4ccccc4)N3[C@@H](c3ccc(O)cc3)[C@]13C(=O)Nc1ccc(C#CCCO)cc13)CC2 : Not satisfied
[N-]=[N+]=NCc1ccccc1C[C@]1(C(N)=O)COC(c2ccc(OCCCO)cc2)=N1 : Satisfied
COCCOC(=O)N1C(=O)[C@@]2(c3cc(C#CCC(C(=O)OC)C(=O)OC)ccc31)[C@H](C(=O)N1CCN(c3ncccn3)CC1)[C@H]1C(=O)O[C@H](c3ccccc3)[C@H](c3ccccc3)N1[C@@H]2c1ccccc1OCCO : Not satisfied
CCCCC(CC)C(O)C1C=CC2C(=O)N(Cc3ccccc3)C(=O)C2N1n1cnnc1 (stereo unspecified) : Not satisfied
CC(C)N1C(=O)[C@@]2(Cc3ccccc31)c1ccccc1C(=O)N(Cc1ccccc1Cl)[C@H]2c1ccc(CO)cc1 : Satisfied

Here's the next entry for you.
IN: Answer whether composite z-score of `O=C1O[C@@H](c2ccccc2)[C@@H](c2ccccc2)N2[C@@H](c3ccccc3OCCO)[C@]3(C(=O)Nc4ccccc43)[C@@H](C(=O)Nc3nc4ccccc4s3)[C@H]12` is greater than or equal to 0.6.
OUT: Not satisfied

----------
Assay: A549 lung cancer cell viability effects, profiling panel, resazurin fluorescence, 24 h, PK04 Diversity Set (AID 1171); also: test concentration not given here
Conditions: higher = more signal, called active from +8 up or from −8 down
// f strictly below -0.6 in z-score; t otherwise

COc1cc2c(cc1O)C(c1cccs1)N(C)CC2 (stereo not drawn) : t
COCCOC(=O)N1C(=O)[C@@]2(c3cc(C#CCC(C(=O)OC)C(=O)OC)ccc31)[C@H](c1ccccc1OCCO)N1[C@H](c3ccccc3)[C@H](c3ccccc3)OC(=O)[C@H]1[C@@H]2C(=O)NC[C@H](O)c1ccccc1 : t
C=CCN1C(=O)[C@]2(O[C@H](CCn3cc([C@H](O)c4ccccc4)nn3)[C@@H]([Si](C)(C)c3ccc(OC)cc3)[C@@H]2C)c2cc(N3CCC3=O)ccc21 : f
C=CC[C@@]1(C(=O)NCCN2CCOCC2)N=C(c2ccc(OCCCO)cc2)O[C@@H]1c1ccccc1N=[N+]=[N-] : t
C=CCN1C(=O)[C@@]2(Cc3ccccc31)N=C(c1ccc(OCCCO)cc1)O[C@H]2c1ccccc1 : f
COc1ccc(C(=O)Nc2ccc(CN3C(=O)[C@]4(O[C@H](CCO)[C@@H]([Si](C)(C)c5ccc(OC)cc5)[C@@H]4C)c4ccccc43)cc2)cc1 : f
CC(C)C(CO)N1C(=O)[C@@H]2C3C(=O)OCCC/C=C\[C@H]3OC23C=CCN(CCN2CCOCC2)C(=O)[C@@H]13 (stereo partly drawn) : f
C=CCOC(=O)[C@H]1[C@@H]2C(=O)O[C@@H](c3ccccc3)[C@@H](c3ccccc3)N2[C@@H](c2ccc(OCCOC(=O)[C@H]3C[C@H]4C(=O)N[C@@H](CCCC[N+](C)(C)C)C(=O)N4[C@H]3c3ccc(O)cc3)cc2)[C@]12C(=O)Nc1ccc(I)cc12 : t

IN: Does `CCOC(=O)C[C@H]1[C@H](OC(=O)c2ccc(C(=O)c3ccccc3)cc2)[C@@H](NC(=O)c2ccc3ccccc3c2)c2cc(OCCCO)ccc2N1C(=O)Cc1ccc(OC)cc1` have a reported z-score of at least -0.6?
OUT: t

IN: Say whether C[C@H]1C2[C@H](Cc3ccccc3)NC(=O)[C@]23C(=O)N[C@H](Cc2ccccc2)C(=O)N2CCC[C@H]2C(=O)NC/C=C\C/C=C/C3[C@@H]2O[C@]12C (stereo partly drawn) shows z-score of -0.6 or more.
OUT: t

----------
Experiment: binders of probe aHhip on microarray, primary screen, stem cell growth factor project, biochemical, small-molecule microarray, fluorescence 635/667 (AID 1087);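 also: score merges spot fluorescence at 667nm with spot signal to noise ratio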
Conditions: higher = more signal
Measurement name: composite z-score
Give the value as a plain number.

C[N+](C)(C)CCCCCCNC(=O)[C@@H]1C[C@@H]2C(=O)N[C@@H](Cc3ccccc3)C(=O)N2[C@@H]1c1cccc(OCCO)c1 : 0.236
CC(C)c1ccc(NN2C(C(O)c3ccc(B(O)O)cc3)C=CC3C(=O)N(c4ccccc4)C(=O)C32)cc1 (centres undefined) : 0.0722
COCCOC(=O)N1C(=O)[C@@]2(c3ccccc31)[C@H](c1ccccc1OCCO)N1[C@H](c3ccccc3)[C@H](c3ccccc3)OC(=O)[C@H]1[C@@H]2C(=O)N1CCN(c2ncccn2)CC1 : -0.0672
COc1ccc(C(O)C2C=CC3C(=O)N(Cc4ccccc4)C(=O)C3N2n2cnnc2)cc1OCc1ccccc1 (centres undefined) : -0.0296

Lab note: `COc1ccc(CCNC(=O)[C@@H]2c3ccccc3C(=O)N(Cc3ccccc3Cl)[C@H]2c2ccc(CO)cc2)cc1` gave composite z-score of -0.214

Record `C=CCOC(=O)[C@@H]1[C@H]2C(=O)O[C@H](c3ccccc3)[C@H](c3ccccc3)N2[C@H](c2ccc(OCCOC(=O)[C@H]3C[C@H]4C(=O)N5CCC[C@H]5C(=O)N4[C@H]3c3ccc(O)cc3)cc2)[C@@]12C(=O)Nc1ccc(I)cc12` . Reported composite z-score: -0.34

Entry `CCOC(=O)C[C@H]1[C@H](OC(=O)c2ccc(C(=O)c3ccccc3)cc2)[C@@H](NC(=O)c2ccccc2)c2cc(OCCCO)ccc2N1C(=O)c1ccc2ccccc2n1` ; composite z-score = 0.107

So, `C#C[C@H](O[Si](C#Cc1ccc(Oc2ccccc2)cc1)(C(C)C)C(C)C)c1ccccc1` ? Its composite z-score was -0.0994

composite z-score for COc1cc2c(cc1O)C(C1CC1)N(Cc1sc3ccccc3c1Cl)CC2 (centres undefined) is -0.0994

----------
Here, each record is paired with measured composite z-score data.
Test: small-molecule binders of probe aNOTCH2, primary screen, biochemical, small-molecule microarray, 635/667 nm fluorescence (AID 1121);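 also: score merges feature fluorescence read at 667 nm with its signal to noise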
Settings: higher = more signal
Just the number, please.

Example entries and their recorded answers appear below.
COCCOC(=O)N1C(=O)[C@@]2(c3cc(C#CC4(O)CCCCCC4)ccc31)[C@H](c1ccc(OCCO)cc1)N1[C@H](c3ccccc3)[C@H](c3ccccc3)OC(=O)[C@H]1[C@@H]2C(=O)N1CCN(c2ncccn2)CC1 : -0.146
CCS[C@H]1[C@@H](C(=O)O)[C@H](c2ccc(C)cc2)N(S(=O)(=O)c2ccc(C)cc2)[C@@H]1CC : 0.0431
NCCCCCCNC(=O)[C@@H]1C[C@@H]2C(=O)NCC(=O)N2[C@@H]1c1ccc(O)cc1 : -0.124
C=C[C@H](OC)[C@@H](OC(=O)Nc1ccc(OC)cc1)c1ccc(O)c(F)c1 : -0.217
COC(=O)[C@H](Cc1ccccc1)N1CC2=C[C@@H](C3CC3)n3c(=O)n(C)c(=O)n3[C@H]2[C@@H]1[C@@H](O)Cc1ccccc1 : -0.115

The reported composite z-score of the molecule `COCCOC(=O)N1C(=O)[C@@]2(c3cc(C#Cc4ccc(OC)cc4)ccc31)[C@H](c1ccc(OCCO)cc1)N1[C@H](c3ccccc3)[C@H](c3ccccc3)OC(=O)[C@H]1[C@@H]2C(=O)N1CCN(c2ncccn2)CC1` was -0.102

CC(C)C[C@@H]1NC(=O)[C@H](C(C)C)NC(=O)[C@@]23C(=O)N[C@@H](Cc4ccccc4)C2[C@H](C)[C@@]2(C)O[C@H]2C3/C=C/CC/C=C/CNC1=O (stereo partly specified) has a reported composite z-score of -0.126

Recorded result, CC(CO)N1C(=O)[C@@H]2C3C(=O)OCCC/C=C\[C@H]3OC23C=CCN(C(C)(C)C)C(=O)[C@@H]13 (stereo partly specified) , composite z-score: -0.167

The reported value for `Cc1ccc([C@@H]2C[C@@H](Sc3ccccc3)[C@H](C(=O)O)CN2S(=O)(=O)c2ccc(C)cc2)cc1` in terms of composite z-score is 0.0019

The molecule listed as `COc1ccc([Si](C)(C)[C@@H]2[C@@H](CCO)O[C@]3(C(=O)N(Cc4ccc(N(C=O)c5ccccc5)cc4)c4ccccc43)[C@H]2C)cc1` shows composite z-score equal to -0.0621

Quick note, composite z-score for `CO[C@H]1O[C@H](CO)[C@@H](OC(=O)Nc2ccc(Oc3ccccc3)cc2)[C@H](OC(=O)Nc2ccc3c(c2)OCO3)[C@H]1OC(=O)Nc1ccc2c(c1)OCO2` landed at 0.0976

According to the records, this molecule CC(=O)n1cc(C(O)C2C=CC3C(=O)N(c4ccccc4)C(=O)C3N2Nc2ccc([N+](=O)[O-])cc2)c2ccccc21 (stereo unspecified) displays composite z-score of 0.386

The molecule listed as `[N-]=[N+]=Nc1ccccc1[C@@H]1OC(c2ccc(OCCCO)cc2)=N[C@]1(Cc1ccccc1)C(=O)N1CCOCC1` has a reported composite z-score of 0.0117

Summary for this molecule, `COCCOC(=O)N1C(=O)[C@@]2(c3cc(C#CCC(C(=O)OC)C(=O)OC)ccc31)[C@H](C(=O)Nc1nc3ccccc3s1)[C@H]1C(=O)O[C@H](c3ccccc3)[C@H](c3ccccc3)N1[C@@H]2c1ccccc1OCCO` : composite z-score is -0.0956

Record `CCCC[C@H]1OB(O)C[C@H]2C1=C(COC)Cn1c(=O)n(-c3ccccc3)c(=O)n12` , field composite z-score: -0.172

`COC(=O)[C@]1(CCC(=O)OC(C)(C)C)N=C(c2ccc(OCCCO)cc2)O[C@@H]1c1ccccc1CN=[N+]=[N-]` yielded composite z-score of 0.0059
